Data credit: the supplement of paper PMC9732359

# Test Summary: protein stability index of a GFP-peptide fusion (yeast GPS) (PSI 1-4); higher = more stable; sorted into four equal gates, so the index is relative within each strain
# Test Parameters: pdr5∆
Let's look at some sequences and their measured protein stability index.

{"Chain Sequence": "FRYITTWENEFLDSQRV [PRP8]", "protein stability index": 2.69}
{"Chain Sequence": "LNATTAMDLAQMLIQGV [BRR2]", "protein stability index": 1.68}
{"Chain Sequence": "DQIEKLREVVELPLLSP [RPT1]", "protein stability index": 3}
{"Chain Sequence": "NNQSKEKADYEDEMMHE [RPN12]", "protein stability index": 2.7}
{"Chain Sequence": "FLQRVRVWEYRQKNVIH [RPL15A]", "protein stability index": 1.72}
{"Chain Sequence": "YASYFPYLLETYANVLI [RPN7]", "protein stability index": 1.43}
{"Chain Sequence": "AKKQNRPLPQWIRLRTN [RPL39]", "protein stability index": 2.69}
{"Chain Sequence": "INIQKKLEPKEIVRDIL [SIR4]", "protein stability index": 3.19}
{"Chain Sequence": "AGEFGLKNKREIYRISF [RPS9B]", "protein stability index": 2.94}
{"Chain Sequence": "DISATQLPKQLWRNFCR [ITC1]", "protein stability index": 2.68}
{"Chain Sequence": "VSIKFTNAAFPFHDPEA [ECM29]", "protein stability index": 2.11}
{"Chain Sequence": "KLTDEQSSLDVAGLEDK [SIR3]", "protein stability index": 2.85}
{"Chain Sequence": "TPIIFIGTGEHIHDLEK [SRP54]", "protein stability index": 2.42}
{"Chain Sequence": "SSETDDDHSQVINPQQL [DSN1]", "protein stability index": 3.13}
{"Chain Sequence": "SKEFSAYVSGLFEIYRD [YJR042W/NUP85]", "protein stability index": 2.75}
{"Chain Sequence": "KPNLNYFKSILLNKNTG [SWI1]", "protein stability index": 2.19}
{"Chain Sequence": "ISMNAPVFVDLEGETDP [RPO26]", "protein stability index": 2.78}
{"Chain Sequence": "LLREFKKLDDKPSLVDV [RPN6]", "protein stability index": 3.44}
{"Chain Sequence": "QQQLQQNSKEKNGLGLN [MED2]", "protein stability index": 3.26}
{"Chain Sequence": "FESLPLKSAENSGKQQY [SWP82]", "protein stability index": 3.3}
{"Chain Sequence": "LEIALFKYRKARLEPGT [RPO31]", "protein stability index": 1.69}
{"Chain Sequence": "ERNAAYQKEYETAERNI [RPL7A]", "protein stability index": 2.61}
{"Chain Sequence": "VRQKIKTLKRMIKESST [POP1]", "protein stability index": 1.68}
{"Chain Sequence": "AEEEEESDDDMGFGLFD [RPP0]", "protein stability index": 2.96}
{"Chain Sequence": "PVAKWFVKFITYLTQEI [SIN4]", "protein stability index": 1.88}
{"Chain Sequence": "QLSNGIVVATEHNPSAH [COR1]", "protein stability index": 3.08}
{"Chain Sequence": "TLRKELEQIQVQLKDAN [YIL149C/MLP2]", "protein stability index": 2.96}
{"Chain Sequence": "IELNFDAVKDFKLGKFN [QCR2]", "protein stability index": 2.69}
{"Chain Sequence": "PGTVLILLAGRFRGKRV [RPL6A]", "protein stability index": 1.83}
{"Chain Sequence": "FVCRGMAATQTIEQSPR [ECM29]", "protein stability index": 1.93}
{"Chain Sequence": "EALAFTSLVANENDKIY [YDL116W/NUP84]", "protein stability index": 2.4}
{"Chain Sequence": "AATMTSAPPPALPHVEI [RGR1]", "protein stability index": 2.83}
{"Chain Sequence": "TMGMRALLKLSVKLKQK [DIS3]", "protein stability index": 1.59}
{"Chain Sequence": "LRSTENGIVDQVLVTTN [RPB2]", "protein stability index": 2.03}
{"Chain Sequence": "KHYLEDKLKVYKQAMNE [SNF5]", "protein stability index": 3.18}
{"Chain Sequence": "KNATEELLRLANEQLKL [CSN12]", "protein stability index": 2.93}
{"Chain Sequence": "DLKSKGLIPADATFAGH [FAS1]", "protein stability index": 3.01}
{"Chain Sequence": "GSTFKVNQEFIFEAISL [YJL039C/NUP192]", "protein stability index": 2.31}
{"Chain Sequence": "NNPKIQTKDSVKEIVLP [IRR1]", "protein stability index": 2.94}
{"Chain Sequence": "NSNTTNQNSSTGAGAFG [YJL041W/NSP1]", "protein stability index": 3.07}
{"Chain Sequence": "PTLQVGDLVYARVCTAE [RRP40]", "protein stability index": 1.85}
{"Chain Sequence": "VKIVDKDGIRQVDDFQA [PRE1]", "protein stability index": 2.9}
{"Chain Sequence": "GGNFKDLSTLVHSSSPS [GAL11]", "protein stability index": 1.46}
{"Chain Sequence": "DLINILEKKGFSEVYEY [LIN1]", "protein stability index": 3.21}
{"Chain Sequence": "NKLEKLNSLLTYIKSEI [SMC4]", "protein stability index": 2.32}
{"Chain Sequence": "AQDSLTVTIASSLNLED [RPB8]", "protein stability index": 1.92}
{"Chain Sequence": "FAKEHNATVNLAMEAIL [YJR042W/NUP85]", "protein stability index": 2.66}
{"Chain Sequence": "TSIRLEGDELENKTKKD [SRB4]", "protein stability index": 3.78}
{"Chain Sequence": "LPSSNGSSRIIASDGSE [RRP42]", "protein stability index": 2.86}
{"Chain Sequence": "RTKNLVSKMEKAEKTLK [SMC4]", "protein stability index": 3.1}
{"Chain Sequence": "SENRNNIKSSISNGNLA [YOR098C/NUP1]", "protein stability index": 3.65}
{"Chain Sequence": "NHVKQFYERLDKSTTQL [MED11]", "protein stability index": 2.64}
{"Chain Sequence": "VRKETYSSYIYKVLKQT [HTB2]", "protein stability index": 3.26}
{"Chain Sequence": "DIFSNLSSDDLLGKESF [YCS4]", "protein stability index": 2.24}
{"Chain Sequence": "LHGLTPTAKDVEVIKQL [GAL11]", "protein stability index": 2.64}
{"Chain Sequence": "TRSHFNALYDTLLESNL [RPN6]", "protein stability index": 2.49}
{"Chain Sequence": "NYHPNASITPYKLVNKN [RPN4]", "protein stability index": 2.38}
{"Chain Sequence": "PKDYIKKLLEVHDIFSK [CDC53]", "protein stability index": 2.04}
{"Chain Sequence": "SLLPYYHLTKAVKLGDL [RPN3]", "protein stability index": 1.74}
{"Chain Sequence": "SIFEDAIKELNYNRIAK [NUT1]", "protein stability index": 3.12}
